System: PF-382 (T-Lymphoblastic Leukemia)
Experiment notes: combination Emax (second highest fraction inhibited in the dose matrix, 72 h); higher = more inhibition; extreme values may be limits of the assay
Property: combination Emax
One number for each entry.

# Compound, combination Emax
records = [
    ("Cn1cnc2c(F)c(Nc3ccc(Br)cc3Cl)c(C(=O)NOCCO)cc21 [Selumetinib] + CC(C)n1c(=O)n(C)c2cnc3cc(F)c(-c4ccc(OCCCN5CCCCC5)nc4)cc3c21 [AZD1390] (first compound max 10 µM, 7x7, partner max 0.3 µM)", 0.211),
]

Looking for the measured combination Emax of CCc1c2c(nc3ccc(O)cc13)-c1cc3c(c(=O)n1C2)COC(=O)[C@]3(O)CC [SN-38] + O=C(c1cc(Cc2n[nH]c(=O)c3ccccc23)ccc1F)N1CCN(C(=O)C2CC2)CC1 [Olaparib] (first compound max 0.3 µM, 7x7, partner max 10 µM) , can you help?
1

====

Test system: NCI-H1573 (Lung Adenocarcinoma)
Experiment notes: combination Emax (second highest fraction inhibited in the dose matrix, 72 h); higher = more inhibition; extreme values may be limits of the assay
Assign combination Emax to each entry below.
Numbers only.

# Molecule, Property, Assay value
records = [
    ("Cc1cc2ncnn2cc1Nc1ncc2c(n1)n(C1CCOCC1)c(=O)n2C [AZD7648] + C[C@@H]1COCCN1C2=NC(=NC(=C2)C3(CC3)[S@](=N)(=O)C)C4=C5C=CNC5=NC=C4 [AZD6738] (first compound max 10 µM, 7x7, partner max 10 µM)", "combination Emax", 0.592),
    ("Cc1c2c(nn1C)CSCc1cc(n(C)n1)CSc1cc(c3ccccc3c1)OCCCc1c(C(=O)O)n(C)c3c-2c(Cl)ccc13 [AZD5991] + CCN(CCO)CCCOc1ccc2c(Nc3cc(CC(=O)Nc4cccc(F)c4)[nH]n3)ncnc2c1 [AZD2811] (first compound max 1 µM, 7x7, partner max 1 µM)", "combination Emax", 0.425),
    ("Cc1cc2ncnn2cc1Nc1ncc2c(n1)n(C1CCOCC1)c(=O)n2C [AZD7648] + O=C(c1cc(Cc2n[nH]c(=O)c3ccccc23)ccc1F)N1CCN(C(=O)C2CC2)CC1 [Olaparib] (first compound max 10 µM, 7x7, partner max 10 µM)", "combination Emax", 0.0771),
    ("Cc1cc2ncnn2cc1Nc1ncc2c(n1)n(C1CCOCC1)c(=O)n2C [AZD7648] + CN(C)CCCOc1ccc(-c2ccc3ncc4c(c3c2)n(C2CCOCC2)c(=O)n4C)cn1 [AZD0156] (first compound max 10 µM, 7x7, partner max 1 µM)", "combination Emax", 0.15),
    ("COc1cccc(OCCCN)c1-c1cc(Nc2cnc(C#N)cn2)n[nH]1 [Prexasertib] + Cc1cc2ncnn2cc1Nc1ncc2c(n1)n(C1CCOCC1)c(=O)n2C [AZD7648] (first compound max 1 µM, 7x7, partner max 10 µM)", "combination Emax", 0.668),
]

Look at each molecule and report its combination Emax.
1. Cc1c2c(nn1C)CSCc1cc(n(C)n1)CSc1cc(c3ccccc3c1)OCCCc1c(C(=O)O)n(C)c3c-2c(Cl)ccc13 [AZD5991] + CN(C)CCCOc1ccc(-c2ccc3ncc4c(c3c2)n(C2CCOCC2)c(=O)n4C)cn1 [AZD0156] (first compound max 1 µM, 7x7, partner max 1 µM)
2. Cc1c2c(nn1C)CSCc1cc(n(C)n1)CSc1cc(c3ccccc3c1)OCCCc1c(C(=O)O)n(C)c3c-2c(Cl)ccc13 [AZD5991] + CC1(C)CCC(CN2CCN(c3ccc(C(=O)NS(=O)(=O)c4ccc(NCC5CCOCC5)c([N+](=O)[O-])c4)c(Oc4cnc5[nH]ccc5c4)c3)CC2)=C(c2ccc(Cl)cc2)C1 [Venetoclax] (first compound max 1 µM, 7x7, partner max 1 µM)
3. COc1nnc2ccc(N3CCC(c4ccc(OCCN5CCN(C)C(=O)[C@H]5C)cc4)CC3)nn12 [AZD5153] + Cn1cnc2c(F)c(Nc3ccc(Br)cc3Cl)c(C(=O)NOCCO)cc21 [Selumetinib] (first compound max 1 µM, 7x7, partner max 10 µM)

0.394
0.302
0.755
